- assay.overview: Clearance in Sprague-Dawley rat at 20 mg/kg, po administered as single dose by HPLC analysis
- Format: ADME, organism-based
- study.conditions: in vivo
value.type: CL/F (mL/min/kg)
Numeric only. Scale: mL/min/kg

Give its CL/F value. Item: N#CCN1CCC(n2c(=O)cnc3cnc4ccc(-c5ccc(N)nc5)cc4c32)CC1
58.5

* * *

- Test system: HeLa
- assay.overview: Growth inhibition of human HeLa cells after 72 hrs by CCK8 assay
- Format: functional, cell-based
value.type: pIC50
// pIC50 here means minus log10 of the molar concentration (mol/L)

For N#CCN1CCC(n2c(=O)cnc3cnc4ccc(-c5ccc(N)nc5)cc4c32)CC1 , what is its reported pIC50?
6.36

* * *

- assay.overview: MRT (0 to infinity) in Sprague-Dawley rat at 20 mg/kg, po administered as single dose by HPLC analysis
- Format: ADME, organism-based
- study.conditions: in vivo
value.type: MRT inf (h)
Give a bare numeral; the unit h is implied.

Give the measured MRT inf of N#CCN1CCC(n2c(=O)cnc3cnc4ccc(-c5ccc(N)nc5)cc4c32)CC1 .
16.3

* * *

- assay.overview: MRT (0 to infinity) in Sprague-Dawley rat at 20 mg/kg, iv administered as single dose by HPLC analysis
- Format: ADME, organism-based
- study.conditions: in vivo
value.type: MRT inf (h)
Reply with just the number (in h).

Fill in the blank: the reported MRT inf of N#CCN1CCC(n2c(=O)cnc3cnc4ccc(-c5ccc(N)nc5)cc4c32)CC1 is ____.
11.6

* * *

- assay.overview: Half life in Sprague-Dawley rat at 20 mg/kg, iv administered as single dose by HPLC analysis
- Type: ADME, organism-based
- study.conditions: in vivo
value.type: half-life
Answer format: value, then unit.

Entry under review: N#CCN1CCC(n2c(=O)cnc3cnc4ccc(-c5ccc(N)nc5)cc4c32)CC1 . Reported half-life?
7.57 h

* * *

- system.under.test: mTOR/FKBP12A/FKBP12B (Homo sapiens, UniProt P42345+P62942+P68106)
- Sequence (P62942 2-108 limits assumed, other chains not shown): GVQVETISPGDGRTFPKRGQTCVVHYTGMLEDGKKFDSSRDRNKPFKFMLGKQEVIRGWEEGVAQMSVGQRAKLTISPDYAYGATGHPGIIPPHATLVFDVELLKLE
- Sequence (P68106 whole entry, other chains not shown): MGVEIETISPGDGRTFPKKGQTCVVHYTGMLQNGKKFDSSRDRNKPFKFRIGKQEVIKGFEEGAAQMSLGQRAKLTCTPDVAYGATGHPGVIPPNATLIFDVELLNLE
- assay.overview: Inhibition of full length recombinant human mTOR/FKBP12
- Assay type: protein-complex assay
value.type: pIC50
Value format note: pIC50 is -log10 of concentration (mol/L); just state the number.

# input compound: N#CCN1CCC(n2c(=O)cnc3cnc4ccc(-c5ccc(N)nc5)cc4c32)CC1 ; wanted: its pIC50
8.10

* * *

- assay.overview: Clearance in Sprague-Dawley rat at 20 mg/kg, iv administered as single dose by HPLC analysis
- Format: ADME, organism-based
- study.conditions: in vivo
value.type: clearance (mL/min/kg)
Your answer is read as mL/min/kg, so omit the unit and give the number.

Query: clearance; subject: N#CCN1CCC(n2c(=O)cnc3cnc4ccc(-c5ccc(N)nc5)cc4c32)CC1
25.5

* * *

- assay.overview: AUC (0 to infinity) in Sprague-Dawley rat at 20 mg/kg, iv administered as single dose by HPLC analysis
- Assay type: ADME, organism-based
- Design: dose 20 mg/kg, time infinity, route intravenous
- study.conditions: in vivo
value.type: AUC(0-inf) (ng·h/mL)
The reply should contain only the number, in ng·h/mL.

For N#CCN1CCC(n2c(=O)cnc3cnc4ccc(-c5ccc(N)nc5)cc4c32)CC1 , what is its reported AUC(0-inf)?
6560
